Where do the numbers come from? From patent US5459270A.

target: human neurokinin-1-receptor (NK1R) (Homo sapiens, UniProt P25103); experiment: biochemical; assay type: binding; conditions: displacement of 125I-substance P; human NK1R in COS or CHO cells; read-out: IC50 @ NKIR
Sequence (P25103 whole entry): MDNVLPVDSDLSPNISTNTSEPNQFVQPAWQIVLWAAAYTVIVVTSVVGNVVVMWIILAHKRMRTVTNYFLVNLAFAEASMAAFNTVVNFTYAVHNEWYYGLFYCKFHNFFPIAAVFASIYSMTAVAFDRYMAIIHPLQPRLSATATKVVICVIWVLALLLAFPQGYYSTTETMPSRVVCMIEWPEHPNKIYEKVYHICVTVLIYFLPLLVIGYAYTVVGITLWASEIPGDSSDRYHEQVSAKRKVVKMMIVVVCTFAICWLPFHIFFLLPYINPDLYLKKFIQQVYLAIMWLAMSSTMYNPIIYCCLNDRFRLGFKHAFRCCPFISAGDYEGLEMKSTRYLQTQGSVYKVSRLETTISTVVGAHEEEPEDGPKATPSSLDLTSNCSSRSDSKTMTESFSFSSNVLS
Where a name gives a salt, the structure may show the parent alone.

{"compound": "O=CN1CCC[C@H](OCc2cc(C(F)(F)F)cc(C(F)(F)F)c2)[C@@H]1c1ccccc1", "IC50, nM": 80}
{"compound": "O=C(CN1CCC[C@H](OCc2cc(C(F)(F)F)cc(C(F)(F)F)c2)[C@@H]1c1ccccc1)NC1CC1 [Example 57, hydrochloride]", "IC50, nM": 2.5}
{"compound": "Cc1ccc([C@@H]2NCCC[C@@H]2OCc2cc(C(F)(F)F)cc(C(F)(F)F)c2)cc1 (relative stereo) [Example 24, hydrochloride salt]", "IC50, nM": 15}
{"compound": "FC(F)(F)c1cc(CO[C@H]2CCCN[C@H]2c2cccs2)cc(C(F)(F)F)c1 (relative stereo) [Example 25, hydrochloride salt]", "IC50, nM": 70}
{"compound": "COc1ccc(CN2C(=O)CC[C@H](OCc3cc(C(F)(F)F)cc(C(F)(F)F)c3)[C@@H]2c2ccccc2)cc1 (relative stereo)", "IC50, nM": 160}
{"compound": "CCN(CC)C(=O)CN1CCCC(OCc2cc(C(F)(F)F)cc(C(F)(F)F)c2)C1c1ccccc1 (single isomer, unassigned) [Example 43, hydrochloride]", "IC50, nM": 1.4}
{"compound": "C[N+]1(C)CCC[C@H](OCc2cc(C(F)(F)F)cc(C(F)(F)F)c2)[C@@H]1c1ccccc1", "IC50, nM": 100}
{"compound": "FC(F)(F)c1cc(CO[C@@H]2CCCN[C@H]2c2ccccc2)cc(C(F)(F)F)c1 (relative stereo) [Example 13, hydrochloride salt]", "IC50, nM": 300}
{"compound": "CC(C(N)=O)N1CCC[C@H](OCc2cc(C(F)(F)F)cc(C(F)(F)F)c2)[C@@H]1c1ccccc1 (single isomer, unassigned) [Example 19, hydrochloride]", "IC50, nM": 0.9}
{"compound": "COC(=O)CCN1CCC[C@H](OCc2cc(C(F)(F)F)cc(C(F)(F)F)c2)[C@@H]1c1ccccc1 (relative stereo)", "IC50, nM": 40}
{"compound": "Clc1cc(Cl)cc(CO[C@H]2CCCN[C@H]2c2ccccc2)c1 (relative stereo) [Example 47, hydrochloride salt]", "IC50, nM": 2}
{"compound": "O=C1CC[C@H](OCc2cc(C(F)(F)F)cc(C(F)(F)F)c2)[C@H](c2ccccc2)N1 (relative stereo)", "IC50, nM": 15}
{"compound": "COC(=O)CCCN1CCC[C@H](OCc2cc(C(F)(F)F)cc(C(F)(F)F)c2)[C@@H]1c1ccccc1 (relative stereo)", "IC50, nM": 100}

----------
molecular target: human neurokinin-1-receptor (NK1R) (Homo sapiens); assay: biochemical; type: binding; details: displacement of 125I-substance P; human NK1R in COS or CHO cells; read-out: IC50 @ NKIR
pIC50: −log10 of the molar value. Structures can show the parent of a compound that is named as a salt.
assay-readout: pIC50

{"molecule": "COC(=O)C(C)N1CCCC(OCc2cc(C(F)(F)F)cc(C(F)(F)F)c2)C1c1ccccc1 (single isomer, unassigned) [Example 18]", "assay-readout": "pIC50", "assay-value": 9.22}
{"molecule": "FC(F)(F)c1cc(CO[C@H]2CCCN[C@H]2c2ccccc2)cc(C(F)(F)F)c1 [Example 11, hydrochloride salt]", "assay-readout": "pIC50", "assay-value": 6.46}
{"molecule": "FC(F)(F)c1cc(CO[C@H]2CCCN[C@H]2c2ccc(Cl)cc2)cc(C(F)(F)F)c1 (relative stereo) [Example 23, hydrochloride salt]", "assay-readout": "pIC50", "assay-value": 7.46}
